Source of measurements: ChEMBL document CHEMBL1201862

Please respond with reported GI50 for every item in the list.
Tested on: CCRF-CEM
METHOD_SUMMARY: NCI tumour cell line growth inhibition, 48 h
Active and inactive are the calls of the source. No stated cut-off is given here; in the data, active = GI50 up to about 1.1 µM and inactive = higher.

According to the records, this molecule COc1ccccc1NS(=O)(=O)c1cc(C(C)(C)C)ccc1OCCOc1ccc(C(C)(C)C)cc1S(=O)(=O)Nc1ccccc1OC displays GI50 of > 100 µM (inactive)

According to the records, this molecule O=C(c1ccccc1)c1nnn(Cc2cccc(Cl)c2)c1C(=O)c1ccccc1 displays GI50 of > 100 µM (inactive)

According to the records, this molecule OCC1OC(NCCNCCNC2OC(CO)C(O)C(O)C2O)C(O)C(O)C1O (stereo not drawn) displays GI50 of > 100 µM (inactive)

According to the records, this molecule O=CN/C=C/c1ccccc1O displays GI50 of > 100 µM (inactive)

According to the records, this molecule CCCCCCCCCCCCCCCCCCOCC(COP(=O)([O-])OCC[N+](C)(C)C)OC (stereo not drawn) displays GI50 of 7.62 µM (inactive)

According to the records, this molecule N#Cc1cccc(C2ON=C(c3ccc([N+](=O)[O-])cc3)N2C23CC4CC(CC(C4)C2)C3)c1 (stereo not drawn) displays GI50 of > 100 µM (inactive)

According to the records, this molecule COc1ccc(OC)c(CCc2cc(OC)ccc2OC)c1 displays GI50 of 2.9 µM (inactive)

According to the records, this molecule CCCCCCCCCCCOC(=S)NC(C)C displays GI50 of 23.5 µM (inactive)

* * *

System: M14
METHOD_SUMMARY: NCI tumour cell line growth inhibition, 48 h
Activity calls are given as the source filed them. Cut-off read from the data, not from the text of the source: active = GI50 up to about 1.1 µM and inactive = higher.
Please respond with reported GI50 for every item in the list.

According to the records, this molecule CC1(C)OC2C(CO)OC(N/C(=N/C#N)Oc3ccccc3)C2O1 (configuration not stated) displays GI50 of > 100 µM (inactive)

According to the records, this molecule CC(=O)C(=C(I)I)c1ccccc1 displays GI50 of 14.5 µM (inactive)

According to the records, this molecule CCc1c(O)cc(=O)oc1-c1ccc(OC)c(OC)c1 displays GI50 of > 100 µM (inactive)

According to the records, this molecule CC(C)/C=C1\CCC(CN2CCOCC2)C1=O (configuration not stated) displays GI50 of 11.9 µM (inactive)

According to the records, this molecule COC[C@@H]1[C@H]2OC(C)(C)O[C@H]2C(=O)N1C(=O)c1ccc(OC)cc1 displays GI50 of > 100 µM (inactive)

According to the records, this molecule CC1(c2nc3cc(Cl)c(Cl)cc3[nH]2)CCC(CO)C(C)(C)O1 (configuration not stated) displays GI50 of 26.2 µM (inactive)

According to the records, this molecule N#Cc1cnc(-n2[nH]c3c(c2=O)CCCC3)[nH]c1=O displays GI50 of 38.1 µM (inactive)

* * *

Tested on: SK-MEL-2
METHOD_SUMMARY: NCI tumour cell line growth inhibition, 48 h
The source made the active and inactive calls. No stated cut-off is given here; in the data, active = GI50 up to about 1.1 µM and inactive = higher.
Your answer must be one of the following: active, inactive

Any idea what this test logged for COc1ccc2c(c1OC)C(=O)C2 ?
inactive

Any idea what this test logged for COC[C@@H]1[C@H]2OC(C)(C)O[C@H]2C(=O)N1C(=O)c1ccc(OC)cc1 ?
inactive

Any idea what this test logged for O=c1[nH]c(=O)n(C2CC(O)C(CO)O2)cc1C#Cc1ccc(C(F)(F)F)cc1 (stereo not given) ?
inactive

Any idea what this test logged for CCOC(=O)CC[C@H](NC(=O)N[C@H](C)c1ccccc1)C(=O)OCC ?
inactive

Any idea what this test logged for CC(NNC(=O)c1cc[n+]([BH2-]C#N)cc1)c1cccc(F)c1 (stereo not given) ?
inactive

Any idea what this test logged for COc1ccc2c3c([nH]c2c1)[C@H]1C[C@H]2[C@H](C[C@@H](O)[C@H](OC)[C@H]2C(=O)O)CN1CC3 ?
inactive

Any idea what this test logged for N#CCCN(c1ccc(/C=N/c2ccccc2)cc1)S(=O)(=O)c1ccccc1 ?
inactive

Any idea what this test logged for CN(O)C(=O)c1ccc(OCc2cccc(Cl)c2)cc1 ?
inactive

Any idea what this test logged for C#CCNC(CS)C(=O)O (stereo not given) ?
inactive

Any idea what this test logged for O=C1c2ccccc2C(=O)c2c1oc1cc(O)c(Cl)cc21 ?
inactive

Any idea what this test logged for CC(=O)OCc1nc(C#N)c(N)o1 ?
inactive

Any idea what this test logged for Cc1ncc(CBr)c(CBr)c1O ?
inactive

Any idea what this test logged for CC(=O)OCC1OC(N2C(C)=C(C(C)=O)C(c3ccc(Cl)cc3)C(C#N)=C2S)C(OC(C)=O)C(OC(C)=O)C1OC(C)=O (stereo not given) ?
inactive

Any idea what this test logged for CCOC(=O)C1(C/C=C\CBr)CCCCCCCCCCC1=O (stereo not given) ?
inactive

Any idea what this test logged for O=C1/C(=C/c2cccc([N+](=O)[O-])c2)N=C(c2ccccc2)N1c1nc2ccc(Sc3ccccc3)cc2[nH]1 ?
inactive

Any idea what this test logged for Cn1cnc2c1c(=O)n(CCNCCO)c(=O)n2C ?
inactive

Any idea what this test logged for CCN(C(=O)N[C@@H](C)C(=O)N[C@@H](Cc1ccccc1)C(=O)OC)c1ccccc1 ?
inactive

Any idea what this test logged for Cn1c(=O)c2ccccc2c2nc3ccccc3nc21 ?
inactive

Any idea what this test logged for Nc1nc(N)c(-c2ccccc2)c(C(=O)Nc2ccc(Cl)c(Cl)c2)n1 ?
inactive

Any idea what this test logged for NCCC1([N+](=O)[O-])C=CN=CC1 (stereo not given) ?
inactive

Any idea what this test logged for Cn1c2ccccc2n2c(=O)c3cc([N+](=O)[O-])ccc3c(C#N)c12 ?
inactive

Any idea what this test logged for O=C1c2scnc2-c2nccc3c2c1nc1ccccc13 ?
active

Any idea what this test logged for COc1cc([C@H]2OC[C@H]3[C@@H]2CO[C@@H]3c2cc(OC)c3c(c2)OCO3)cc(OC)c1OC ?
inactive

Any idea what this test logged for O=C(Nc1ccn(CCOC(=O)c2ccccc2)c(=O)n1)c1ccccc1 ?
inactive

Any idea what this test logged for O=C1c2ccc3cc(CCl)cc(O)c3c2C(=O)c2cccc(O)c21 ?
inactive

Any idea what this test logged for CCCCNC(=NC#N)NCCCC ?
inactive

Any idea what this test logged for O=S(=O)(c1ccccc1)C1CN2OC1(S(=O)(=O)c1ccccc1)CC2c1ccc(Br)cc1 (stereo not given) ?
inactive

Any idea what this test logged for NS(=O)(=O)c1cc(Br)c(/N=N\c2ccc(O)c3ncccc23)c(Br)c1 ?
inactive

Any idea what this test logged for Cc1cc(O)cc(O)c1/N=N/c1ccc([N+](=O)[O-])cc1 ?
inactive

Any idea what this test logged for CN(CC(=O)O)Cc1oc(CO)cc(=O)c1O ?
inactive

Any idea what this test logged for CN1CCC/C1=N\C#N ?
inactive

Any idea what this test logged for CC(C)OP(=O)(CCCCCCCCC/C=C/c1ccc2c(c1)OCCOCCOCCOCCO2)OC(C)C ?
inactive

Any idea what this test logged for Cc1ccc([N+](=O)[O-])cc1S(=O)(=O)Nc1ccc(C2=NOC(c3ccccc3)C2)cc1 (stereo not given) ?
inactive

Any idea what this test logged for CCOC(=O)/N=C(\N)SCc1ccccc1 ?
inactive

Any idea what this test logged for ClCC[N+]12CC[N+](CCCl)(CC1)C2 ?
inactive

* * *

Tested on: A549
METHOD_SUMMARY: NCI tumour cell line growth inhibition, 48 h
Activity calls are given as the source filed them. Cut-off read from the data, not from the text of the source: active = GI50 up to about 1.1 µM and inactive = higher. Where a SMILES comes first, the peptide text is derived from it. The star is where a group is joined. Boc = CC(C)(C)OC(=O)*
Your answer must be one of the following: YES (active), NO (inactive)

Any idea what this test logged for COc1cc(C2S/C(=C/c3ccccc3)C(=O)N2c2cccc([N+](=O)[O-])c2)cc(OC)c1OC (centres undefined) ?
NO

Any idea what this test logged for Cc1nc2nnc(CCCCCCCCc3nnc4nc(C)[nH]n34)n2[nH]1 ?
NO

Any idea what this test logged for O=C(CCC(=O)Nc1cccc(Cl)c1)CC(=O)c1ccc(Cl)cc1 ?
NO

Any idea what this test logged for CCCCCCCCCCCCCC(=S)N/C=C/OC ?
NO

Any idea what this test logged for O=c1c2ccccc2nc(-c2cccc(Cl)c2)n1NC1OC(CO)C(O)C(O)C1O (centres undefined) ?
NO

Any idea what this test logged for CSc1ccc(-c2cc(-c3nc4ccccc4[nH]3)no2)cc1 ?
NO

Any idea what this test logged for Cc1nn(-c2nc3ccccc3s2)c2c1C(=O)c1ccccc1-2 ?
NO

Any idea what this test logged for COc1ccccc1CNCc1nc2ccccc2[nH]1 ?
NO

Any idea what this test logged for Cc1c(N)nc(C2CC(=O)N2CC(N)C(N)=O)nc1C(=O)NC(C(=O)NC(C)C(O)C(C)C(=O)NC(C(=O)NCCc1nc(-c2nc(C(=O)NCCNCC(C)O)cs2)cs1)C(C)O)C(OC1OC(CO)C(O)C(O)C1OC1OC(CO)C(O)C(OC(N)=O)C1O)c1c[nH]cn1 (centres undefined) ?
NO

Any idea what this test logged for CC(=O)NNc1nc(C)c(C(=O)/C=C/c2cccc([N+](=O)[O-])c2)s1 ?
NO

Any idea what this test logged for CC(=O)N/N=C1\CC(C)(C)C2CCC1C2 (centres undefined) ?
NO

Any idea what this test logged for COc1ccc(N/N=C/C2=CC(C)(C)C(C#N)(C#N)C(O)=C2C#N)cc1 ?
NO

Any idea what this test logged for Cc1nc(-c2cc3c(ccc4ccccc43)oc2=O)cc2c1c(=O)oc1ccc3ccccc3c12 ?
NO

Any idea what this test logged for COc1cccc(/C=C2/Sc3scc(-c4ccccc4)[n+]3C2=O)c1O ?
NO

Any idea what this test logged for CC(NC(=O)C1CCCN1C(=O)CNC(=O)OC(C)(C)C)C(=O)O (stereo not drawn) (Boc-Gly-Pro-Ala-OH; configuration not given here) ?
NO

Any idea what this test logged for CC(Oc1ccccc1)C(=O)NNC(=O)OC(C)(C)C (centres undefined) ?
NO

Any idea what this test logged for COc1ccc(OC)c(CCc2cc(OC)ccc2OC)c1 ?
NO

Any idea what this test logged for COc1ccc(C2COc3c(ccc(OC)c3OC)C2=O)cc1OC (centres undefined) ?
NO

Any idea what this test logged for CC1(C)OC2C(CO)OC(N/C(=N/C#N)Oc3ccccc3)C2O1 (centres undefined) ?
NO

Any idea what this test logged for COc1cc(C2c3cc4c(cc3[C@@H](NCCN(C)C)C3COC(=O)[C@H]23)OCO4)cc(OC)c1O (some centres undefined) ?
YES

Any idea what this test logged for COc1ccc(/C=C2\CN(C)Cc3c2nc(N)nc3-c2ccc(OC)cc2)cc1 ?
NO

Any idea what this test logged for O=c1n(C2CCCCC2)c(=C(Cl)Cl)c(=C(Cl)Cl)n1C1CCCCC1 ?
NO

Any idea what this test logged for OC/C=C/[C@H](OCc1ccccc1)[C@H](/C=C/CO)OCc1ccccc1 ?
NO

Any idea what this test logged for COc1cc2c3c(cc(Cl)nc3c1OC)C(=O)C(=O)N2 ?
NO
